Measured IC10 for inhibition of growth, listed per entry for reference.
Tested on: P388 murine leukemia cells
experiment: inhibition of growth of P388 cells in vitro (tritiated thymidine incorporation)
reportedConditions: P388, 24 hours drug exposure
Respond numerically; units are nM and should not be typed.

{"compound": "COc1cccc2c1C(=O)c1c(O)c3c(c(O)c1C2=O)C[C@@](O)(C(C)=O)C[C@@H]3OC1CC(N)C(O)C(C)O1 (stereo partly drawn)", "IC10 for inhibition of growth / nM": 300}
{"compound": "COc1cccc2c1C(=N)c1c(O)c3c(c(O)c1C2=O)C[C@@](O)(CCO)C[C@@H]3OC1CC(N)C(O)C(C)O1 (stereo partly drawn)", "IC10 for inhibition of growth / nM": 3500}
{"compound": "CC[C@]1(O)Cc2c(O)c3c(c(O)c2[C@@H](OC2CC(N)C(O)C(C)O2)C1)C(=N)c1c(OC)cccc1C3=O (stereo partly drawn)", "IC10 for inhibition of growth / nM": 1700}
{"compound": "COc1cccc2c1C(=O)c1c(O)c3c(c(O)c1C2=O)C[C@@](O)(CCO)C[C@@H]3OC1CC(N)C(O)C(C)O1 (stereo partly drawn)", "IC10 for inhibition of growth / nM": 1100}
{"compound": "COc1cccc2c1C(=O)c1c(O)c3c(c(O)c1C2=O)C[C@@](O)(C(=O)CO)C[C@@H]3OC1CC(N)C(O)C(C)O1 (stereo partly drawn)", "IC10 for inhibition of growth / nM": 250}

// switching to the query compound
Query (compound): CC[C@]1(O)Cc2c(O)c3c(c(O)c2[C@@H](OC2CC(N)C(O)C(C)O2)C1)C(=O)c1c(OC)cccc1C3=O (stereo partly drawn) ; field requested: IC10 for inhibition of growth
700
